system: PC3; test: In vitro cytotoxicity (Presto Blue), PC3; format: cell-based; details: Homo sapiens, PC-3, 120 h; 5 days treatment, percent survival
Measurement kind: EC50 (nM)
State the answer as a number, implicitly in nM.

Summary: CCC(C)C(C(CC(=O)N1CCCC1C(OC)C(C)C(=O)NC(CO)Cc1cccs1)OC)N(C)C(=O)C(NC(=O)C(NC)C(C)C)C(C)C (stereo not shown) [MMATH] , PC3, EC50 = 0.24
